Record: compiled IC50 on Protein-tyrosine kinase 6 (Homo sapiens, UniProt Q13882) from multiple reports.
Sequence (Q13882 whole entry): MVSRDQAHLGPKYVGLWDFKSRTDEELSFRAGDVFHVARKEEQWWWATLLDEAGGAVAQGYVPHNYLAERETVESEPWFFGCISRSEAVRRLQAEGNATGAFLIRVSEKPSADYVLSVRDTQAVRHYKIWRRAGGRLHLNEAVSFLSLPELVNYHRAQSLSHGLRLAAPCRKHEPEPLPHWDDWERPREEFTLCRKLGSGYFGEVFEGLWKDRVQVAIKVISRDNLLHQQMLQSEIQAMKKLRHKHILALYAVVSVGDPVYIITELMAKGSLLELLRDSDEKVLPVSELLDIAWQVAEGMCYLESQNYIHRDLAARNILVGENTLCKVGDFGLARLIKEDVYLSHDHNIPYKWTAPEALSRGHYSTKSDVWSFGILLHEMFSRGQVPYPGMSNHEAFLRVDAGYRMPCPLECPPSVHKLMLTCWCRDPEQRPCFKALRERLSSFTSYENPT
recorded.endpoint: IC50 (nM)

Guide cases for IC50, answers given:
smiles.string: Nc1nccn2c([C@H]3CN(C4CCOCC4)CCO3)nc(-c3ccc(C(=O)Nc4cc(C(F)(F)F)ccn4)cc3F)c12
target.under.test: Protein-tyrosine kinase 6 (Homo sapiens, UniProt Q13882)
IC50 [nM]: 113

smiles.string: CC(C)C(=O)N1CCC[C@@H](c2nc(-c3ccc(C(=O)Nc4cc(C(F)(F)F)ccn4)cc3F)c3c(N)nccn23)C1
target.under.test: Protein-tyrosine kinase 6 (Homo sapiens, UniProt Q13882)
IC50 [nM]: 350

1. CNc1nc2[nH]c(-c3cccc(CNC(=O)COC)n3)cc2c2c1ncn2C
2. CC1(C)OC(=O)N2C[C@H](c3nc(-c4ccc(C(=O)Nc5cc(C(F)(F)F)ccn5)cc4)c4c(N)nccn34)CC[C@H]21
Ask: Compare 1 and 2 by numeric IC50 and name the larger one. Pick one and reply with its label.
Reply: 1
(1: 310 nM, 2: 24 nM)

---

Record: compiled IC50 on Protein-tyrosine kinase 6 (Homo sapiens) from multiple reports.

Guide cases for IC50, answers given:
smiles.string: COc1ccc(C(=O)NC[C@H](O)CO)cc1/C=C/c1ccc(Cl)cc1
IC50: > 50 µM

smiles.string: CN1CCN(c2ccc(OC(F)(F)F)c(Nc3nccc(-c4cc(C(N)=O)cn4C)n3)c2)CC1
IC50: > 10 µM

smiles.string: CC(C)(C)NS(=O)(=O)c1cncc(-c2ccn3nc(N)nc3c2)c1
IC50: > 10 µM

smiles.string: CCCS(=O)(=O)Nc1ccc(Cl)c(C(=O)Nc2ccc(NC(C)=O)nc2)c1F
IC50: ≤ 10 µM

Next molecule, please.
Ask: Give the measured IC50 of N#CCNC(=O)c1ccc(-c2ccnc(Nc3ccc(N4CCOCC4)cc3)n2)cc1 .
Reply: > 1 µM
